experiment: qHTS assay for identifying genotoxic compounds that show differential cytotoxicity against isogenic chicken DT40 cell lines with known DNA damage response pathways - wild type cell line (AID 743012); conditions: DT40 wild type chicken cells viability, CellTiter-Glo, 40 h; series mostly up to 68.4 µM; note: nearly all actives have a fitted effect of over 60% in size
Inconclusive results are not listed. The source made the active and inactive calls. Calls come from the whole dose curve; as a rule, active = well fitted cell-killing curve with a large enough effect in the repeat runs; inconclusive = weak or mixed curves, or effect the other way; inactive = no such curve, though single readings can be large or run the other way.
A correct response names exactly one class from True (active), False (inactive)

Use the examples below as a reference point.
CC(=O)O[Si](C)(OC(C)=O)OC(C)=O	False
CCCCCCCCCCCCCCCCCC#N	False
CC(C)CO	False
OC[C@@H](O)C(O)[C@@H](O)CO (stereo not given in full)	False
CC(C)NCC(O)c1ccc2ccccc2c1 (stereo not given)	True
CCC/C=C(\C=O)CC	False

[in] Look up the recorded call for CO[C@@]1(NC(=O)Cc2cccs2)C(=O)N2C(C(=O)O)=C(COC(N)=O)CS[C@@H]21 in this test.
[out] False

[in] Look up the recorded call for O=S(=O)(O)c1ccc2c(N=Nc3ccc(S(=O)(=O)O)c4ccccc34)c(O)c(S(=O)(=O)O)cc2c1 in this test.
[out] False

[in] Look up the recorded call for O=C=NCC1CCCC(CN=C=O)C1 (stereo not given) in this test.
[out] False

[in] Look up the recorded call for Cc1cc(C)c(C(=O)O)c(C)c1 in this test.
[out] False

[in] Look up the recorded call for CC(C)COC(=O)c1ccccc1 in this test.
[out] False

[in] Look up the recorded call for COC(C)(OC)OC in this test.
[out] False

[in] Look up the recorded call for COC(=O)/C=C\C(=O)O in this test.
[out] False

[in] Look up the recorded call for C=Cc1ccc(C(C)(C)C)cc1 in this test.
[out] False

[in] Look up the recorded call for Cc1ccc(C)c([N+](=O)[O-])c1 in this test.
[out] False

[in] Look up the recorded call for CC(C)OC(=O)OCOP(=O)(CO[C@H](C)Cn1cnc2c(N)ncnc21)OCOC(=O)OC(C)C in this test.
[out] False
